# TESTED_ON: Amyloid-beta precursor protein (Homo sapiens)
# Sequence (P05067 whole entry): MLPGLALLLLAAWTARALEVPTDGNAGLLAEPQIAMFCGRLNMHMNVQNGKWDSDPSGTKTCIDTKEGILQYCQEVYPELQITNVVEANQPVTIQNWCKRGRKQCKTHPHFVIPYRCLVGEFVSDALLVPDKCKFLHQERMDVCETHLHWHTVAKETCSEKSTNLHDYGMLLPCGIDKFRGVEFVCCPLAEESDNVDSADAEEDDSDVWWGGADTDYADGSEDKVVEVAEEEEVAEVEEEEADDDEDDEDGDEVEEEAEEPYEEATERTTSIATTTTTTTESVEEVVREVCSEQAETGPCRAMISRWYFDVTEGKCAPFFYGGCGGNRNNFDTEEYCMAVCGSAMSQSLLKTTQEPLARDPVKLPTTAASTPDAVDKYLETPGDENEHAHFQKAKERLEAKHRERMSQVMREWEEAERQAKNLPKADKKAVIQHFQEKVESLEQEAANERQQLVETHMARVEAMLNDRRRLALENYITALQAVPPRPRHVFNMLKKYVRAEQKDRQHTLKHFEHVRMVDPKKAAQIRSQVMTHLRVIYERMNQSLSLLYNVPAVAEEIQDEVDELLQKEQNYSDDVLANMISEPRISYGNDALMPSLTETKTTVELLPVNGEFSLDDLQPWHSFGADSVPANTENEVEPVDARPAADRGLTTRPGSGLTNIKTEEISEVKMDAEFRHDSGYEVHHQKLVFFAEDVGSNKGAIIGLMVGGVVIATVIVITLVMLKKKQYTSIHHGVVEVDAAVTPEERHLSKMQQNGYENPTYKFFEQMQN
# ASSAY_TEXT: Binding affinity to fibrillar amyloid beta (1 to 40) (unknown origin) assessed as fluorescence intensity relative to control
Here the recorded fold change (FC) is given for each entry.

Below are worked cases with known answers.
[[record]]
compound_string = "COc1cc(/C=C/c2ccc(C(F)(F)C(F)F)cc2)ccc1/C=C/c1ccc(C(F)(F)C(F)F)cc1"
metric = "fold change (FC)"
measured_value = "< 1"

[[record]]
compound_string = "COc1cc(/C=C/c2ccc(CO)cc2)ccc1/C=C/c1ccc(CO)cc1"
metric = "fold change (FC)"
measured_value = 4.1

[[record]]
compound_string = "COc1cc(/C=C/c2ccc(OC(F)(F)F)cc2)ccc1/C=C/c1ccc(OC(F)(F)F)cc1"
metric = "fold change (FC)"
measured_value = "< 1"

[[record]]
compound_string = "COc1cc(/C=C/c2ccc(OC)c(C(F)(F)F)c2)ccc1/C=C/c1ccc(OC)c(C(F)(F)F)c1"
metric = "fold change (FC)"
measured_value = "< 1"


Read off the recorded fold change (FC) for COc1cc(/C=C/c2ccc(C(F)(F)F)cc2)ccc1/C=C/c1ccc(C(F)(F)F)cc1
< 1

Reference for the values: ChEMBL document CHEMBL3232800
